- Tested on: MS2 coat protein
- Run Description: apparent Kd, MS2 coat protein; higher = weaker binding; RNA-MaP array
- Study Conditions: ligand present: theophylline; designed as: ON switch for theophylline
Readout Type: apparent Kd (nM)

>>> numeric_value("CAGAGACAUGAGGAUCACCCAUGUUGAGAUACCAGCUUGGUAUCGAGCCCUUGGCAGCUCGCCCAUCGUCUAUAUCAGCCUGAGC")
20.2
>>> numeric_value("GCUUAGAAACCUGAUACCAGUCAGCCCUAUGACAUGAGGAUCACCCAUGUGAUACUCACGGACCCUUGGCAGCAGGGUCGAUUAC")
429
>>> numeric_value("AGUGGUGCAACUGAUACCAGAUUUAUACGAGACAUGAGGAUCACCCAUGUCGAAAGACAAAUCCCUUGGCAGCAGACACGAUCCC")
8.85
>>> numeric_value("CCGUCACAUGAGGAUCACCCAUGUGGUGAUACCAGCAGUCGACCCUGCCCUUGGCAGCACAUUAUCAUAAAAGCAAUCAGCAACG")
149
>>> numeric_value("CAUAGCAAAAGUGAUACCAGAGUUCGAGGGAACAUGAGGAUCACCCAUGUGCUUGUACAACUCCCUUGGCAGCACAGAGCAAUUA")
10.3
>>> numeric_value("UCCAGACAUGAGGAUCACCCAUGUUGUGAUACCAGAACCGUGGAGUUCCCUUGGCAGCACUAAGAAGUUCCUGGAUCAGCUAGCG")
32.8

Hello, the source for this data is the EternaBench riboswitch data, in case you need it.
